- Test system: HepG2
- measurement_notes: GSK_TCMDC: Percent inhibition of human HepG2 cell line. Test compounds present at 10uM.
- Type: functional
Rule: Inhibition below 20% gives Condition met, anything at or above gives Condition not met.

INSERT INTO results (compound, class_assignment) VALUES
  ('Cc1ccc(Cc2cnc(CN3CCCCC3)c(O)c2)cc1.Cl', 'Condition met');

Does the reported Inhibition of Cc1cccn2c(=O)c3cc(C(=O)NCCc4ccccc4)c(=N)n(CCCOC(C)C)c3nc12 stay below 20%?
Condition met

Criterion: Inhibition strictly below 20%. Is it met by Cc1ccc(Nc2nc(C)cc(Nc3cccc(C#N)c3)n2)cc1 ?
Condition met

I wonder whether CC(C)(CNCc1ccc(C(F)(F)F)cc1)c1nc(-c2ccc(Cl)c(O)c2)c(-c2ccncc2)[nH]1.Cl has Inhibition below 20%. Can you tell?
Condition not met

Problem: For the compound Oc1c(C(Nc2nc3ccccc3s2)c2ccc(OC(F)F)cc2)ccc2cccnc12 (configuration not stated) , is Inhibition under 20%?
Condition not met

Consider Oc1ccc2[nH]c(-c3cccc(F)c3)nc2c1CN1CCC(O)(c2ccccc2)CC1 . Does its Inhibition lie strictly below 20%?
Condition not met

Is 20% strictly greater than the compound's reported Inhibition? compound: CN(C)CCN1CCN(Cc2cccc(-c3csc(-c4nc5ccccc5[nH]4)c3)c2)CC1.O=C(O)C(F)(F)F
Condition not met

Problem: For the compound O=C(COc1cnc2ccccc2n1)Nc1ccccc1Sc1ccc(Cl)cc1 , is Inhibition under 20%?
Condition met

Lab note: confirm whether the reported Inhibition for this compound is below 20%, equality not counting. compound: Nc1ccc(-c2ccc3ccnc(N)c3c2)cc1
Condition not met
